- Test system: P388
- assay_comment: Cytotoxicity against mouse P388 cells after 3 days by MTT assay
- Format: functional
- settings: P388, 72 h, read-out: ED50 (the source's name)
recorded_metric: log10(EC50) (log10 of the value in µg/mL)

[
  {
    "molecule": "COC(C)(C)/C1=C/[C@H]2O[C@]2(C)CC/C=C(\\C)CC[C@H]2O[C@]2(C)CC1",
    "log10(EC50)": 0.51
  },
  {
    "molecule": "CC1=C2CC/C(C)=C/CC[C@]3(C)O[C@H]3CC/C(C)=C/[C@@H]2OC1=O",
    "log10(EC50)": 0.38
  },
  {
    "molecule": "C/C1=C\\C=C(\\C(C)(C)O)CC[C@@]2(C)O[C@@H]2CC/C(C)=C/CC1",
    "log10(EC50)": -2.00
  },
  {
    "molecule": "C/C1=C\\CCC(C)(O)C2C=C(C(C)(C)O)C(C/C(C)=C/CC1)O2 (configuration not stated)",
    "log10(EC50)": -0.64
  },
  {
    "molecule": "CC1=C2CC/C(C)=C/CC[C@@](C)(O)[C@@H](O)CC/C(C)=C/[C@@H]2OC1=O",
    "log10(EC50)": 0.51
  },
  {
    "molecule": "C/C1=C\\C=C(\\C(C)(C)O)C(O)C/C(C)=C/CC/C(C)=C/CC1 (configuration not stated)",
    "log10(EC50)": 0.19
  },
  {
    "molecule": "CC1=C2CC/C(C)=C/CC[C@]3(C)O[C@H]3CC/C(C)=C/[C@@H]2OC1",
    "log10(EC50)": 0.59
  }
]
